# TARGET UNDER TEST: human tear lipocalin (TL) mutant S61/S153 (Homo sapiens, UniProt P31025, C119L/C171S/C79S)
# Sequence (P31025 19-176 C79S/C119L/C171S): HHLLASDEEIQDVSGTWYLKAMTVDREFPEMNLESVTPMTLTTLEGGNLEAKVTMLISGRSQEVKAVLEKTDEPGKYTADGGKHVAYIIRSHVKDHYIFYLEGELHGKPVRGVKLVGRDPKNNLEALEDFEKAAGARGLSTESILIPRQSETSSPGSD
# PROTOCOL SUMMARY: fluorescence titration, steady-state deconvoluted with time-resolved lifetimes
REPORTED PROPERTY: Kd (µM)
Number in µM, nothing else.

Challenge: Look up Kd for this molecule: CN(C)c1cccc2c(S(=O)(=O)NCCCCCCCCCCC(=O)O)cccc12 [DAUDA]
Response given: 2.6

From: paper PMC3103136
